Where do these numbers come from? They come from PubChem BioAssay AID1030.

Target: Aldehyde dehydrogenase 1A1 (Homo sapiens)
Experiment: qHTS Assay for Inhibitors of Aldehyde Dehydrogenase 1 (ALDH1A1)
Settings: Purified ALDH1A1, NADH fluorescence, propionaldehyde substrate; series mostly up to 75.3 µM
Screen size: about 220,000 compounds; about 16,000 (7.3%) were called active. Roughly 25% stayed inconclusive and do not appear here. Calls follow the shape of the dose curve; as a rule, active = well fitted inhibition curve with a large enough effect (not every such curve was filed as active); inconclusive = small, poorly fitted or top-dose-only effect, or another doubt; inactive = no such curve, though single readings can be large or run the other way. Shown is part of a subset that was picked to be rich in actives.
Possible outcomes: true (1) = active, false (0) = inactive

compound	assigned-label
CCCCN1CCNC1=S	false (0)
COc1ccc(C(=O)Nc2c(Cl)cc(Cl)cc2C(=O)N2CCC(C)CC2)cc1	false (0)
COc1ccc(-c2nc(N)sc2C2(O)C(=O)Nc3c(Br)cc(F)cc32)cc1OC (stereo not given)	true (1)
Cc1cc(C(=O)COC(=O)C2CC2)c(C)n1-c1ccc(F)cc1	false (0)
O=C(CCN1C(=O)c2ccncc2C1=O)Nc1cc(F)ccc1F	false (0)
